Would you mind telling me the reported Primary QIM CellNb of each entry?
test system: Raw264.7 cells; conditions: mouse, 5 days, 20 μM
Numbers only.

Some compounds with recorded Primary QIM CellNb:
- CCOC(=O)C1=C(C)NC2=C(C(=O)CC(c3ccccc3)C2)C1c1cccc(O)c1 (stereo not shown): 19.5
- CCOc1ccc2ccccc2c1/C=N/NC(=O)c1ccncc1: 98.8
- O=C(N/N=C/c1ccccc1[N+](=O)[O-])c1ccncc1: 94.4
- C/C(=N\NC(=O)c1cccc(F)c1)c1ccc2ccccc2c1: 65.1
- CC(=O)Oc1ccccc1C(=S)Nc1ccccc1: 7.7
- CC(C)c1ccc(/C=N/NC(=O)c2ccncc2)cc1: 94.5
- COc1cc(Cl)cc(/C=N/NC(=O)c2ccccc2O)c1O: −2.9
- CC/C(Cc1ccccc1)=N\NC(=O)c1ccncc1: 88.3
- COc1cccc(/C=N/NC(=O)c2ccncc2)c1OC: 98.7

Proceeding to the next compound to report its Primary QIM CellNb.
The reported value for "O=C(N/N=C/c1ccc(O)cc1O)c1ccncc1" in terms of Primary QIM CellNb is 87.1

* * *

Would you mind telling me the reported Primary QIM CellNb of each entry?
tested on: Raw264.7 cells; test: Cell number (CellNb) from image analysis of the phenotypic cell-based assay; settings: primary screen, 20 μM
One number for each entry.

Some molecules with recorded Primary QIM CellNb:
* CCCSc1nnc(-c2ccc(Cl)cc2Cl)o1 | 203.8
* COc1cccc(/C=N/NC(=O)c2ccncc2)c1OC | 229.5
* O=C(N/N=C/c1ccccc1Cl)c1ccncc1 | 228.8

Record Primary QIM CellNb for all entries; do not skip any.
1. O=C(N/N=C/c1ccc(F)cc1)c1ccncc1
2. Clc1ccc(Nc2nc3nonc3nc2Nc2ccc(Cl)cc2)cc1
3. O=C(Nc1cc(Cl)cc(Cl)c1)c1ccc([N+](=O)[O-])cc1Cl
4. O=C(N/N=C/c1cccs1)c1ccncc1
5. CCCCc1ccc(C(=O)Nc2ccc(Br)cn2)cc1

1. 262.5
2. 78.0
3. 205.3
4. 270.8
5. 125.8

Record Primary QIM CellNb for all entries; do not skip any.
1. CC(NC(=O)c1cccc(Cl)c1)c1ccccc1 (stereo not shown)
2. O=C(N/N=C/c1ccc([N+](=O)[O-])cc1)c1ccncc1

1. 142.3
2. 315.3

* * *

test system: Raw264.7 cells; details: mouse, 5 days, 20 μM
value.kind: Primary QIM CellNb
Answers are plain numbers.

- CCOc1ccc(NC(=S)Nc2ccccc2)cc1 [IPK 000 108 78]: 38.3
- C/C(=N\NC(N)=S)c1ccccc1O [IPK 000 080 38]: 32.1
- Cc1nn(C)cc1/C=N/NC(=O)c1ccncc1 [IPK 000 079 13]: 97.8
- O=C(Nc1cccnc1)c1ccc(COc2ccc3ccccc3c2)o1 [IPK 000 124 43]: 26.2
- O=C(Nc1sc2c(c1C(=O)Nc1ccccc1)CCC2)c1ccccc1Cl [IPK 000 073 68]: 74.7
- N=C1S/C(=C/c2ccc([N+](=O)[O-])cc2)C(=O)N1c1nccs1 [IPK 000 094 38]: 13.6
- c1cc2c(cc1C13CC4CC(CC(C4)C1)C3)c1c3n2CCNC3CCC1 (centres unmarked) [IPK 000 068 87]: −12.0
- O=C(Nc1nccs1)c1ccc(COc2ccc(Cl)cc2)o1 [IPK 000 124 54]: 16.4

Record Primary QIM CellNb for all entries; do not skip any.
1. O=C(COc1ccccc1-c1ccccc1)N/N=C\c1ccc([N+](=O)[O-])s1 [IPK 000 103 28]
2. O=C(N/N=C/c1ccccc1Cl)c1ccncc1 [IPK 000 043 05]
3. CCOc1ccc(/C=N/NC(=O)c2ccncc2)cc1 [IPK 000 041 49]
4. CC(/C=N/NC(=O)c1ccncc1)c1ccccc1 (centres unmarked) [IPK 000 105 20]
5. NNC(=O)c1ccc(COc2ccc(F)cc2)o1 [IPK 000 124 65]
6. Cc1ccc(/C=N/NC(=O)c2ccncc2)cc1 [IPK 000 041 50]

1. 49.5
2. 101.6
3. 102.3
4. 103.8
5. 45.0
6. 102.2

Record Primary QIM CellNb for all entries; do not skip any.
1. O=C(N/N=C/c1ccc(Cl)cc1Cl)c1ccncc1 [IPK 000 043 13]
2. O=C(N/N=C/c1cccc(Cl)c1Cl)c1ccncc1 [IPK 000 043 10]
3. CCOC(=O)/C=C/C(=O)Nc1sc(Cc2ccccc2)c(C)c1C(N)=O [IPK 000 110 16]
4. CC(NC(=O)c1cccc(Cl)c1)c1ccccc1 (centres unmarked) [IPK 000 067 51]
5. Cc1cc(/C=C(/C#N)C(=O)Nc2cccc(Br)c2)c(C)n1-c1ccc(C(=O)O)cc1 [IPK 000 113 05]
6. COc1c(O)cc(/C=N/NC(=O)c2ccncc2)cc1Br [IPK 000 078 30]

101.6
92.7
6.0
17.9
31.6
97.0

Data origin: patent US8785452B2
